Origin of the recorded values: the RNAGym collection of RNA variant scans (doi:10.7554/elife.80360)

B1: Twister Ribozyme (parent)
chain: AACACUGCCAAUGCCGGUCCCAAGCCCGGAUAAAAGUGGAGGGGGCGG

- Variants of: B1
- assayDetails: self-cleavage, relative activity (ratio to wild type); higher = more cleavage; co-transcriptional
testReadout: self-cleavage

Identify measured self-cleavage corresponding to U31G G38C
0.894

State its self-cleavage for this variant: C3A G28A
0.183

Answer with the recorded self-cleavage of G7U A10G only.
0.237

For the variant A23C G36C , give its reported self-cleavage.
0.102

Return self-cleavage (reported value) for this variant: G38C G47A
0.737

Answer with reported self-cleavage of A2G U37C
0.0955

Check the records and state self-cleavage for A1C A11U
0.176

Determine its reported self-cleavage: A2G A23U
0.0843

Quick one: give measured self-cleavage for G16U A30G
0.761

For the variant C8A A30C , give its reported self-cleavage.
0.147

Consider the variant A1C G42U and give its recorded self-cleavage.
0.169

Item C5A G39A : provide self-cleavage
0.161

For the variant A4G C8G , give its measured self-cleavage value.
0.289

Please list self-cleavage recorded for the variant C19G C26A
0.0816

Return reported self-cleavage. Input variant: G36U G39A
0.172

Given the variant G7U G45C , write its reported self-cleavage.
0.118

Dear colleague, please send me the reported self-cleavage for G17C U37C when you can.
0.0657

Annotate the variant G28C G41A with its measured self-cleavage.
0.408

Report self-cleavage for G13C U31G
0.585

Given U31A C46U , respond with its self-cleavage.
0.582

Indicate its recorded self-cleavage; the variant in question is U6G G42A
0.0807

Give the value of self-cleavage reported for the following: C21U G36A
0.0555
